All values here come from the supplement of paper PMC10567573.

Give protein stability index for every item shown.
Assay: protein stability index of a GFP-peptide fusion (GPS, HEK-293T) (PSI 1-6); higher = more stable;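 further: 24-mer peptide tiles fused after GFP, lentivirally expressed, FACS-sorted into six equal bins by GFP/DsRed ratio, decoded by Illumina sequencing, PSI is the read-weighted mean bin number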
Conditions: treatment: MLN4924 1 uM, 8 h; c terminus: a fixed tail appended

Name the reported protein stability index value associated with the sequence VLEVRTENLKQQRSRREQFSRAPV [STX5]
3.63

Name the reported protein stability index value associated with the sequence LEENDETRFILSKVPSEAPSPMPT [SLC6A17]
4.84

Name the reported protein stability index value associated with the sequence QSLKGHLRNNFQKQLLSNKELILD [ZC2HC1C]
3.17

Name the reported protein stability index value associated with the sequence RLSSSLQGSAVTLKTSKMALSPSA [CDC14A]
3.65

Name the reported protein stability index value associated with the sequence VVFLSPLTTFQDQLNRRGEFIQEI [OAS1]
2.35

Name the reported protein stability index value associated with the sequence PTMAPAGQPAPVSMVPPSPAMAAS [SNAP91]
4.89

Name the reported protein stability index value associated with the sequence GGGGSRSISASSARFVSSGSGGGY [KRT15]
4.13

Name the reported protein stability index value associated with the sequence EAEKDGVKVPTTLAEYCIKTKVPS [UBE2R2]
5.15

Name the reported protein stability index value associated with the sequence SQCQMETKPLAIHPCGDKNCPAHW [ADAMTSL2]
4.53

Name the reported protein stability index value associated with the sequence ITAFYNEARARARANRGILQQERQ [DNAJC4]
3.81

Name the reported protein stability index value associated with the sequence FLADEEFDVVVCDQVSACIPVFRL [ALG2]
2.34

Name the reported protein stability index value associated with the sequence NGTEDLPYAMKPIDYYTETKILQE [NSDHL]
4.22

Name the reported protein stability index value associated with the sequence LQLETVLEGVVSQIDAVGSKLKML [PKD2L1]
2.37

---

Assay: protein stability index of a GFP-peptide fusion (GPS, HEK-293T) (PSI 1-6); higher = more stable
Conditions: treatment: MLN4924 1 uM, 8 h; c terminus: a fixed tail appended
Mark label 0 for protein stability index values under 4, and label 1 for everything at or above.

Reported protein stability index at or above 4? ISLRVYRKVLQAVHRGDGANPFQA [RTN2]
label 0

Reported protein stability index at or above 4? TFFRLLLPEAPPKKFLTLGSKFRY [EPB41L3]
label 0

Reported protein stability index at or above 4? AEKWQKEKDRIKSFTTNEKAILEQ [TRIM29]
label 1

Reported protein stability index at or above 4? ISDALIRRVHLTEDQWGKGTLTPR [TRIM9]
label 0

Reported protein stability index at or above 4? VSREENREDKATIKCETSPPSSPR [PPFIA4]
label 1

Reported protein stability index at or above 4? VGPWLGQLQELLHHCDDHLSLYQL [RSAD1]
label 0

Reported protein stability index at or above 4? VGGVLRGLNHSLSYDVALHRTRLQ [SCARA5]
label 0

Reported protein stability index at or above 4? IVRFLESNWFVWVTQMNHIPMHID [FADS1]
label 0

---

Test: protein stability index of a GFP-peptide fusion (GPS, HEK-293T) (PSI 1-6); higher = more stable
Conditions: treatment: MLN4924 1 uM, 8 h; c terminus: a fixed tail appended
Give protein stability index for every item shown.
Respond with the number and no other words.

Name the reported protein stability index value associated with the sequence EQHISKCKKAFREGSRKSSRVKGS [KMT2E]
4.63

Name the reported protein stability index value associated with the sequence LSSPEFSELCIWLGSQIKSLCNLE [FAM98B]
2.76

Name the reported protein stability index value associated with the sequence DYVMTTLLFSDKNVNSNLITWNRV [TRIP13]
2.36

Name the reported protein stability index value associated with the sequence RRGRSPKGEFKDEEETVTTKHIHI [CLINT1]
4.73

Name the reported protein stability index value associated with the sequence QEIMEKYNIKLKWTNQQKLYSRTG [CFHR2]
2.66

Name the reported protein stability index value associated with the sequence DTEVITVEKSSPATSLFVELDEEE [BCL2L13]
5.54

Name the reported protein stability index value associated with the sequence VCVDRVLYLFGGHHSRGNTNKFYM [KLHDC2]
2.86

---

Assay: protein stability index of a GFP-peptide fusion (GPS, HEK-293T) (PSI 1-6); higher = more stable
Settings: treatment: MLN4924 1 uM, 8 h; c terminus: a fixed tail appended
Mark n for protein stability index values under 4, and y for everything at or above.

Reported protein stability index at or above 4? LAALSATISFRIYKSVLQAVQKTD [RTN1]
n

Reported protein stability index at or above 4? LQGALDLLAVLCVDGSGRARQAAC [ZSWIM9]
n

Reported protein stability index at or above 4? KNNICFMSHHQEELVPKQPQKRKP [SLC2A12]
y

Reported protein stability index at or above 4? YRWQGRRWEPSGKAEPRLPDRVYI [TBX6]
n

Reported protein stability index at or above 4? ERLAKNLVEKGVLTTEKQNFLLFD [GOLPH3]
n

Reported protein stability index at or above 4? GAAESPYSHLGGIDYKTTTILLDG [RAB40A]
n

Reported protein stability index at or above 4? PAPASPAISVVGVSAGGHTLSRPP [TFE3]
y

Reported protein stability index at or above 4? DPESERALQAPHSPSKTDGKELAG [PBXIP1]
y

Reported protein stability index at or above 4? DLMVEATPRRVFANAHTYHINSIS [PPP2R2B]
n

Reported protein stability index at or above 4? PEKHQVPEKLIWGDQDPLSKIPFK [WDR88]
y

Reported protein stability index at or above 4? EAMAEKNRRDVEAWFFSKTEELNK [KRT15]
y

Reported protein stability index at or above 4? IKENAQDTMRQINKKGFWSYGPVI [TOR1AIP2]
n

Reported protein stability index at or above 4? RKRAVPCGACLTQLFFFHLFVGVD [OR3A1]
n

Reported protein stability index at or above 4? GNPFLDVPQALSATTYKHGVLTRK [PSD2]
y

Reported protein stability index at or above 4? VSISVVHGNLSEEAAKQMRSRGKV [CPOX]
n

Reported protein stability index at or above 4? MHYQMSVTLKYEIKKLIYVHLVIW [JAGN1]
n

Reported protein stability index at or above 4? HVGWLLVRKHPAVKEKGSTLDLSD [SCD]
n

Reported protein stability index at or above 4? AQALRQELERQRRLLGSVQQDLER [PBXIP1]
y

Reported protein stability index at or above 4? LGTENLHLIFSYSVWVLRDFPEDG [VPS39]
n

Reported protein stability index at or above 4? EKLGSGEPSHSVKVHTVPKPGKGA [ATE1]
y

Reported protein stability index at or above 4? CPPLHIPGSMSEVQELCKQLHAKI [TNNI2]
n

Reported protein stability index at or above 4? NAGLVWFFPWREAKPGSTEKGLPL [MFSD9]
n

---

Test: protein stability index of a GFP-peptide fusion (GPS, HEK-293T) (PSI 1-6); higher = more stable
Conditions: treatment: DMSO; c terminus: native
Give protein stability index for every item shown.
Respond with the number and no other words.

Name the reported protein stability index value associated with the sequence MGGPAISMASPMSIPTNTMHYGS [CARM1]
2.96

Name the reported protein stability index value associated with the sequence MKSAMRKLWSKKVSLAGKWLYHS [OR4A15]
2.47

Name the reported protein stability index value associated with the sequence QVPVVDFQAELRQAFLAETPRGG [SNURF]
3.04

Name the reported protein stability index value associated with the sequence SFSGKVFPFFAVWKKGSCLTLKG [TRIM15]
3.25

Name the reported protein stability index value associated with the sequence LAVAVPAVTSADSQFSQTTQAGS [LYSMD4]
3.91

Name the reported protein stability index value associated with the sequence NLSEFQHVISRSPDFASSFKIVL [CIB1]
2.29

Name the reported protein stability index value associated with the sequence GGTEEKSSLLMSCLACDTWAVIL [RPAIN]
2.7

Name the reported protein stability index value associated with the sequence PPTLQEAGLSHTEVLFVQDLTDE [FAF2]
4.88

Name the reported protein stability index value associated with the sequence VKEKFSPEAFTEQLYRYVTKLLV [ALG2]
3.38

Name the reported protein stability index value associated with the sequence FDPKTKRILTLQKANSWFNCRKN [MMP1]
2.84

Name the reported protein stability index value associated with the sequence NGSDNLPSSAGSGDKPLSDPAPF [TPD52L2]
5.44

Name the reported protein stability index value associated with the sequence SNYYVAHPPVTYSQPYPTWLPCN [TENT5C]
3.25

---

Experiment: protein stability index of a GFP-peptide fusion (GPS, HEK-293T) (PSI 1-6); higher = more stable
Details: treatment: MLN4924 1 uM, 8 h; c terminus: a fixed tail appended
Mark N for protein stability index values under 3, and Y for everything at or above.

Reported protein stability index at or above 3? LGTRESDTEVITVEKSSPATSLFV [BCL2L13]
Y

Reported protein stability index at or above 3? WLPLHYAAWQGHLPIVKLLAKQPG [RIPK4]
N

Reported protein stability index at or above 3? IILTNQSVREVTQIKCIELKSELG [P2RY14]
N

Reported protein stability index at or above 3? NMSSSRGPLPVKRGPPPRSGGPPP [RBMX]
Y

Reported protein stability index at or above 3? RDLINCCYVSRRLSQLSSHDPLWR [FBXO3]
N

Reported protein stability index at or above 3? GAVYADSGNFERCIRLWKYALDMQ [FEM1A]
N

Reported protein stability index at or above 3? SYVCRCKQGYILNSDQTTCRIQDL [MATN2]
N

Reported protein stability index at or above 3? LPPPDPNPPRAEFNYSVGFKDLNE [APBB1IP]
Y

Reported protein stability index at or above 3? IDVEALQVAFGSLYRDDVLIKPSR [GMCL1]
N

Reported protein stability index at or above 3? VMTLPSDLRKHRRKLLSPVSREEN [PPFIA4]
Y

Reported protein stability index at or above 3? IFNVAIPRFHMACPTFRVSIARLE [FBXO3]
N
